Where do the numbers come from? From ChEMBL document CHEMBL4422612.

Target: Tyrosine-protein phosphatase non-receptor type 11 (Homo sapiens)
Assay: Inhibition of recombinant full length human GST-tagged SHP2 PTP domain using phospho-peptide as substrate pre-incubated for 30 mins before substrate addition and measured after 30 mins
observable: pIC50
// scale note: pIC50 = -log10(conc_M); give the bare number

*Q* Please give the measured pIC50 for this compound: CCOc1cc(O)c(C(=O)/C=C/c2ccc(Cl)cc2Cl)cc1CN1CCC=C(n2c(=O)[nH]c3ccccc32)C1
*A* 4.68

---

Target: Tyrosine-protein phosphatase non-receptor type 11 (Homo sapiens, UniProt Q06124, E76K)
Sequence (Q06124 as listed by the source E76K): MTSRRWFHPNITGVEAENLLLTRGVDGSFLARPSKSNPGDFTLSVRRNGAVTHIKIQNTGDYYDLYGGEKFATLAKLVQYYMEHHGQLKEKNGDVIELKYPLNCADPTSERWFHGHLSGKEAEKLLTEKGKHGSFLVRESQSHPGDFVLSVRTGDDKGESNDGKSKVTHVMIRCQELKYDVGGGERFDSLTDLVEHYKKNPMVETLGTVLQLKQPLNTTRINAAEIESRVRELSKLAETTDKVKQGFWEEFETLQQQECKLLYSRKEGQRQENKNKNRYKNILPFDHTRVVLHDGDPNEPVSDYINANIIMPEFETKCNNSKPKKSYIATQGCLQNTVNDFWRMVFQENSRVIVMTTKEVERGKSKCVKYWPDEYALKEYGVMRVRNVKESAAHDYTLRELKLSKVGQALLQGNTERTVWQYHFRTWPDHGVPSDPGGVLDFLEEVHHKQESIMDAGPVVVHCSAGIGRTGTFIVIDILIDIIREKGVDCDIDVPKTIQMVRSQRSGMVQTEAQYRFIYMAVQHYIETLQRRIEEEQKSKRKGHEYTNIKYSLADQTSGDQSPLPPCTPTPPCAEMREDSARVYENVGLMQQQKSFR
Experiment: Inhibition of recombinant full length human GST-tagged SHP2 E76K mutant using phospho-peptide as substrate pre-incubated for 30 mins before substrate addition and measured after 30 mins
observable: pIC50
// scale note: pIC50 = -log10(conc_M); give the bare number

*Q* Fill in the recorded pIC50 for this compound, with Tyrosine-protein phosphatase non-receptor type 11 (Homo sapiens, UniProt Q06124, E76K) as test system: CCOc1cc(O)c(C(=O)/C=C/c2ccc(Cl)cc2Cl)cc1CN1CCC=C(n2c(=O)[nH]c3ccccc32)C1
*A* 5.12
